- system: T1, UNK ZnF1-3 (human, UniProt Q9C0B0 31-174)
- T1 sequence: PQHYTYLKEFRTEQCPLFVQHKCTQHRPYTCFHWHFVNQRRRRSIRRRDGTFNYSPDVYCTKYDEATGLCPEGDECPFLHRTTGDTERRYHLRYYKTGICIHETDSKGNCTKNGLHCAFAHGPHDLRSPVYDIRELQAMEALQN
- testName: nsRBNS (natural sequence RNA bind-n-seq); RBNS binding buffer (assumed for nsRBNS): 25 mM Tris pH 7.5, 150 mM KCl, 3 mM MgCl2, 0.01% Triton X-100, 500 ug/ml BSA, 20 U/ml SUPERase-In, 4 C; UNK is unkempt and MSI1 is Musashi-1; names of the RNAs are library labels; protein concentration not given here; high values mean tight binding
Whole data set: some 24,000 sequences, median “enrichment r” near 0.99, cut for the highest 2% near 3.7. The full list was thinned out, with the highest values kept by preference.

>  <binder>
chr16:5009651:5009652:-_ENSMUSG00000022540_ENSMUST00000023191|mus_hu|FALSE|FALSE (ssRNA) RNA: GGGAGUUCUACAGUCCGACGAUCUGCAGGGAGACGGUGAAGUAGACCAGGGCGUCGUUGAGCCAGGGGAUCACGCACUCCACUUUGUGCACGUGGCUCACCUCCAGGCGCUGAGAGCCCCACUCGAACAUGGCCCCAGGGCUACAACAGAGGAUUGAGCAUCA

>  <readingUnit>
enrichment R

>  <binding signal>
0.75

$$$$
>  <binder>
chr6:41757443:41757444:+_ENSG00000214736_ENST00000398881|hu_mus|hu_hu_hu_mus_False|98_108 (ssRNA) RNA: GGGAGUUCUACAGUCCGACGAUCGAACUGUCUGCUGACCAGAGAAUAGCCGACACUGGGGGAUGGGGGGGCAGUGGGGGGGGGUUCAGGCAAGGAGAGGGAGUCAACUUCAGCUGCCACUCAGGUAGGAUCUUGUGGUCACAGCAACAGAGGAUUGAGCAUCA

>  <readingUnit>
enrichment R

>  <binding signal>
4.46

$$$$
